Source: patent US20260001874A1

# Test system: RK13 cells
# conditionParameters: rabbit
CC50 for assorted molecules
// return numeric value only (unit: µM, not printed)

molecule: Cc1nc(-c2ccc(C3N(C)c4ccc(F)cc4C(=O)N3c3ccccc3)s2)cs1 (stereo not drawn)
unitLabel: µM
CC50: 3.35

molecule: Cc1nc(-c2ccc(C3N(C)c4ccc(F)cc4C(=O)N3c3ccc(O)cc3)s2)cs1 (stereo not drawn)
unitLabel: µM
CC50: 12.9

Recorded CC50 for Cc1nc(-c2ccc(C3N(C)c4ccc(F)cc4C(=O)N3c3ccccc3N)s2)cs1 (stereo not drawn) , please?
7.46

----------
# System: HeLa cells
# conditionParameters: human
measuredProperty: CC50

Recorded CC50 for Cc1nc(-c2ccc(C3N(C)c4ccc(F)cc4C(=O)N3c3ccc(O)cc3)s2)cs1 (stereo not shown) , please?
20.4 µM
